Some compounds, each annotated with its measured pIC50.
Assay Comment: Inhibition of human DNA polymerase gamma
pIC50: −log10 of the molar value.

Before answering, review these 2 worked examples.
Line Notation: C[C@@]1(F)[C@H](O)[C@@H](COP(=O)(O)OP(=O)(O)OP(=O)(O)O)O[C@H]1n1cc(-c2ccn[nH]2)c2c(N)ncnc21
pIC50: < 5.00
--
Line Notation: C[C@@]1(O)[C@H](O)[C@@H](COP(=O)(O)OP(=O)(O)OP(=O)(O)O)O[C@H]1n1cc(-c2ncon2)c2c(N)ncnc21
pIC50: < 5.00

Consider the additional compound presented here.
### Prompt Return reported pIC50; argument: C[C@@]1(O)[C@H](O)[C@@H](COP(=O)(O)OP(=O)(O)OP(=O)(O)O)O[C@H]1n1cc(-c2cc[nH]n2)c2c(N)ncnc21
### Response < 5.00
